FYI, the data here is from patent US20230181580A1.

- Target Or Test System: CDK6/D3 (Homo sapiens)
- Sequence (Q00534 whole entry): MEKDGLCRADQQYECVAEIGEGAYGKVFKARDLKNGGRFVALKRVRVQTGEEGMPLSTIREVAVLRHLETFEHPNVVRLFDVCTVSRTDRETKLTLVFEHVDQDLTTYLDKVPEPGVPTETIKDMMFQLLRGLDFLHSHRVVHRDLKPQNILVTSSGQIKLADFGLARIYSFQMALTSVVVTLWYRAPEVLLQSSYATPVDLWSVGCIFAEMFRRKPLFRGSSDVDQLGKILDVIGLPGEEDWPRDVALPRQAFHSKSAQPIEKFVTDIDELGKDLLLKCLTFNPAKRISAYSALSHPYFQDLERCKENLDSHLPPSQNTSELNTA
- Sequence (P30281 whole entry partner): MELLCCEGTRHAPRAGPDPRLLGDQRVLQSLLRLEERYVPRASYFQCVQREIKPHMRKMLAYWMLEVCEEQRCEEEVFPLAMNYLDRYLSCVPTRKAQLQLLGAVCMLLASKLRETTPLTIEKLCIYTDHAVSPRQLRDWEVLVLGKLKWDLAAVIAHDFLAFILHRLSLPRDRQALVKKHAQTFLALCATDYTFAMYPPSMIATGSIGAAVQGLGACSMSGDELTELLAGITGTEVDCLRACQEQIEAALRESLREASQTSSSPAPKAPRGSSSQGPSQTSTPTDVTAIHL
- Assay Overview: CDK kinase inhibition assay (radiometric / ADP Glo)
Reported Metric: Ki (nM)
Give just the numeric value; nM need not be written.

                                 smiles_str  measurement_unit  value_reported
0  Cc1nc(NC2CCCC2)sc1-c1ccnc(Nc2ccc(N3CCNCC3)cn2)n1                nM              34
1  Cc1nc(NC2CCCC2)sc1-c1ccnc(Nc2ccc(N3CCC(N)CC3)cn2)n1                nM               8

// fetch Ki given entry `CNc1nc(C)c(-c2nc(Nc3ccc(N4CCC(N)CC4)cn3)ncc2F)s1` 32

// fetch Ki given entry `Cc1nc(NC2CCCC2)sc1-c1nc(Nc2ccc(N3CCOCC3)cn2)ncc1F` 20

// fetch Ki given entry `CCN1CCN(Cc2ccc(Nc3ncc(F)c(-c4sc(NC5CCCC5)nc4C)n3)nc2)CC1` 3

// fetch Ki given entry `CCN1CCN(Cc2ccc(Nc3nccc(-c4sc(NC5CCCC5)nc4C)n3)nc2)CC1` 9

// fetch Ki given entry `CCN1CCN(c2ccc(Nc3nccc(-c4sc(NC5CCCC5)nc4C)n3)nc2)CC1` 11

// fetch Ki given entry `CNc1nc(C)c(-c2nc(Nc3ccc(N4CCN(C(C)=O)CC4)cn3)ncc2C#N)s1` 30

----------
- Target Or Test System: CDK4/D1 (Homo sapiens, UniProt P11802)
- Sequence (P11802 whole entry): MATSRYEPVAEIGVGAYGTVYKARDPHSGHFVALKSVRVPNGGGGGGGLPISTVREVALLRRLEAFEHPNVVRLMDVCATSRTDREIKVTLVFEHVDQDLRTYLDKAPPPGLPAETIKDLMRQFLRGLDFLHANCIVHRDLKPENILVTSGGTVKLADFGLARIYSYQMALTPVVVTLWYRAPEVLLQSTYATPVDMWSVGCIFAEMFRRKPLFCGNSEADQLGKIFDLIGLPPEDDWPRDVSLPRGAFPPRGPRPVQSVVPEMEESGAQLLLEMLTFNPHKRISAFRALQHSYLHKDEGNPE
- Sequence (P24385 whole entry partner): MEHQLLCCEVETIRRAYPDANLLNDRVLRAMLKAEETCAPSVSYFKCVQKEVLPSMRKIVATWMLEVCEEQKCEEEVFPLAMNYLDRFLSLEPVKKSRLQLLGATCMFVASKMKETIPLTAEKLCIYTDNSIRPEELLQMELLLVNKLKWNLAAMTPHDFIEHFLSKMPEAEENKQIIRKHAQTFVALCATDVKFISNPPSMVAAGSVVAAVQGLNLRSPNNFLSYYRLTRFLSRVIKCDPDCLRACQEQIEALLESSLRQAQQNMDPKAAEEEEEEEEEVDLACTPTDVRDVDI
- Assay Overview: CDK kinase inhibition assay (radiometric / ADP Glo)
Reported Metric: log10 Ki (log10 of the value in nM)
Friendly reminder: values = log10 of Ki, unit nM.

// fetch log10 Ki given entry `CNc1nc(C)c(-c2nc(Nc3ccc(N4CCN(C(C)=O)CC4)cn3)ncc2C#N)s1` 0.60

// fetch log10 Ki given entry `Cc1nc(NC2CCCC2)sc1-c1nc(Nc2ccc(N3CCOCC3)cn2)ncc1F` 0.78

// fetch log10 Ki given entry `CCN1CCN(Cc2ccc(Nc3ncc(F)c(-c4sc(NC5CCCC5)nc4C)n3)nc2)CC1` -0.70

// fetch log10 Ki given entry `CCN1CCN(Cc2ccc(Nc3nccc(-c4sc(NC5CCCC5)nc4C)n3)nc2)CC1` 0.78

// fetch log10 Ki given entry `CNc1nc(C)c(-c2nc(Nc3ccc(N4CCC(N)CC4)cn3)ncc2F)s1` 0.48

// fetch log10 Ki given entry `Cc1nc(NC2CCCC2)sc1-c1ccnc(Nc2ccc(N3CCNCC3)cn2)n1` 0.00

// fetch log10 Ki given entry `CCN1CCN(c2ccc(Nc3nccc(-c4sc(NC5CCCC5)nc4C)n3)nc2)CC1` 0.30

// fetch log10 Ki given entry `Cc1nc(NC2CCCC2)sc1-c1ccnc(Nc2ccc(N3CCC(N)CC3)cn2)n1` 0.00

----------
- Test system: MV4-11
- Assay Overview: Resazurin proliferation assay, leukaemia cell line
- Format: cell-based
- Test Parameters: Homo sapiens, 72 h, read-out: Antiproliferative activity GI50 MV4-11
Rule for this label: T means GI50 is less than 30 nM; F means GI50 is at least 30 nM.

Here are 3 compounds together with their reported answers.
>>> print(df.to_string())
                                 smiles_str  target_or_test_system  cat
0  CCN1CCN(c2ccc(Nc3nccc(-c4sc(NC5CCCC5)nc4C)n3)nc2)CC1                 MV4-11    T
1  Cc1nc(NC2CCCC2)sc1-c1ccnc(Nc2ccc(N3CCNCC3)cn2)n1                 MV4-11    T
2  CNc1nc(C)c(-c2nc(Nc3ccc(N4CCN(C(C)=O)CC4)cn3)ncc2C#N)s1                 MV4-11    F

Identify whether the compound `Cc1nc(NC2CCCC2)sc1-c1nc(Nc2ccc(N3CCOCC3)cn2)ncc1F` records GI50 below 30 nM. F

Identify whether the compound `CCN1CCN(Cc2ccc(Nc3nccc(-c4sc(NC5CCCC5)nc4C)n3)nc2)CC1` records GI50 below 30 nM. T

Identify whether the compound `CNc1nc(C)c(-c2nc(Nc3ccc(N4CCC(N(C)C)CC4)cn3)ncc2F)s1` records GI50 below 30 nM. F

Identify whether the compound `CCN1CCN(Cc2ccc(Nc3ncc(F)c(-c4sc(NC5CCCC5)nc4C)n3)nc2)CC1` records GI50 below 30 nM. T

Identify whether the compound `CNc1nc(C)c(-c2nc(Nc3ccc(N4CCC(N)CC4)cn3)ncc2F)s1` records GI50 below 30 nM. F
